System: OVCAR-4
Assay Overview: NCI tumour cell line growth inhibition, 48 h
Activity calls are given as the source filed them. Cut-off read from the data, not from the text of the source: active = GI50 up to about 1.1 µM and inactive = higher.
Overview of reported GI50 across a group of molecules:

| Molecule | GI50 |
| --- | --- |
| Cc1ccc(S(=O)(=O)N[C@@H](Cc2ccccc2)C(=O)CCl)cc1 | 4.93 µM (inactive) |
| O=C(Nc1ccccc1)O/N=C(/CBr)c1ccccc1 | 15.1 µM (inactive) |
| CC(C)NC1CCCCC2c3ccccc3C12O (stereo not given) | > 100 µM (inactive) |
| COc1ccc(/C=C2\N=C(c3ccccc3)N(C3Nc4cc5c(cc4S3)NC(N3C(=O)/C(=C/c4ccc(OC)cc4)N=C3c3ccccc3)S5)C2=O)cc1 (stereo not given) | 38.3 µM (inactive) |
| NCc1cc(O)c(O)c(O)c1 | > 100 µM (inactive) |
| COc1cc2cc(C(=O)N3CC(CCl)c4ccc([N+](=O)[O-])cc43)[nH]c2c(OC)c1OC (stereo not given) | 29.2 µM (inactive) |
| N#C/C(=C\c1cc(O)ccc1O)C(N)=O | 54 µM (inactive) |
| CC(C)NC(=O)OCc1c(COC(=O)NC(C)C)c(-c2cc[n+](COC(=O)C(C)(C)C)cc2)n2c1CCC2 | > 100 µM (inactive) |
| Clc1ccc(/N=N/c2nc3ccccc3nc2/N=N/c2ccc(Cl)cc2Cl)c(Cl)c1 | > 100 µM (inactive) |
| c1ccc(COCC23CCN(Cc4ccccc4)C(CC(OCc4ccccc4)C2)S3)cc1 (stereo not given) | 53.1 µM (inactive) |

====

Test system: UACC-257
Assay Overview: NCI tumour cell line growth inhibition, 48 h
Calls of active or inactive are those of the source. No stated cut-off is given here; in the data, active = GI50 up to about 1.1 µM and inactive = higher.
Attribute Measured: GI50

| Molecule | Attribute Measured | Value Measured |
| --- | --- | --- |
| COc1cc(CC(=O)O)c([N+](=O)[O-])cc1OC | GI50 | > 100 µM (inactive) |
| CN(C)CCNC(=O)c1cccc2nc3cccc(F)c3nc12 | GI50 | 1.39 µM (inactive) |
| CCCN(CCC)c1c([N+](=O)[O-])cc(C(=O)N(CC)CC)cc1[N+](=O)[O-] | GI50 | 16.3 µM (inactive) |
| O=C(O)C12C3CCCC1C2CC3 (stereo unspecified) | GI50 | > 100 µM (inactive) |
| CCN(CC)CCNC(=O)c1nn(C)c(=S)[nH]c1=S | GI50 | > 100 µM (inactive) |
| O=c1c(C(c2ccc(/C=C/c3ccccc3)cc2)c2c(O)oc3cc(O)ccc3c2=O)c(O)oc2cc(O)ccc12 | GI50 | > 100 µM (inactive) |
| Cc1cccc2c(=O)c3cccc([C@H](C)C(=O)O)c3oc12 | GI50 | > 100 µM (inactive) |
| COc1ccc(C(=O)C=C2NCCN2)cc1 | GI50 | > 100 µM (inactive) |
| CS(=O)(=O)Sc1ccc(Cl)cc1 | GI50 | 8.53 µM (inactive) |
| CCN(CC)c1ccc(/N=C2\C=C(Cl)C(=O)c3ncccc32)c(C)c1 | GI50 | 2.48 µM (inactive) |
| C[C@]12CC[C@H]3[C@@H](CCC4=CC(=O)C=C[C@@]43O)[C@@H]1CCC2=O | GI50 | > 100 µM (inactive) |

====

Test system: OVCAR-8
Assay Overview: NCI tumour cell line growth inhibition, 48 h
Calls of active or inactive are those of the source. Cut-off read from the data, not from the text of the source: active = GI50 up to about 1.1 µM and inactive = higher.
Classes used: active, inactive

| Molecule | Group Label |
| --- | --- |
| CC(C)[C@H]1NC(=O)[C@H]2N=C(O[C@@H]2C)[C@@H]2CCCN2C(=O)[C@H](Cc2ccccc2)NC(=O)[C@@H]2COC(=N2)[C@@H](Cc2ccccc2)NC(=O)[C@@H]2COC1=N2 | inactive |
| O=C(Nc1ccccc1)N1C(c2ccccc2)=N[C@@H](c2ccccc2)[C@@H]1c1ccccc1 | inactive |
| CN1C(=S)C(c2ccccc2)Sc2ccccc21 (centres undefined) | inactive |
| CSc1cc(-c2ccccn2)nc(-c2ccccn2)c1 | active |
| COc1cc(=O)n2c3ccccc3n(C)c2c1C#N | inactive |
| Cc1cccc2c(=O)c3cccc([C@H](C)C(=O)O)c3oc12 | inactive |
| O=C(/C=C\c1cccc2ccccc12)c1cccc2ccccc12 | inactive |
| CCOP(=O)(OCC)C(C(=O)OC)C(=O)C(=O)Nc1ccc(Cl)cc1Cl (centres undefined) | inactive |
| O=C1CCCCC12CCC/C2=N\O (centres undefined) | inactive |
| COC(=O)C1=C(C(=O)OC)C2(CCCCCC2=O)OC1=O (centres undefined) | inactive |
| COc1cc(/C=C2\C[C@H]3[C@@H]4CCC5=CC(=O)CC[C@]5(C)[C@H]4CC[C@]3(C)C2=O)cc(OC)c1OC | inactive |
| CC(C)(C)[Si](C)(C)Oc1ccc(C2CNC(=O)C23CCC(=O)N3Cc2ccccc2)cc1 (centres undefined) | inactive |
| CCc1ccc(Cc2ccc(CC)c(NC(=O)C(=O)Cc3nc4ccccc4nc3C)c2CC)c(CC)c1NC(=O)C(=O)Cc1nc2ccccc2nc1C | inactive |
| CC(=O)OCC1OC(OC2CC3C(C)(C)C(O)CC[C@]3(C)C3CCC45CC4(CC[C@H]5C(C)CC(O)C4OC4(C)C)[C@]23C)C(O)C(O)C1O (some centres undefined) | inactive |
| CCOC(=O)NC(=O)c1cn(CCN2CCN(C(=O)CCCCCCCCCCC(=O)N3CCN(CCn4cc(C(=O)NC(=O)OCC)c(=O)[nH]c4=O)CC3)CC2)c(=O)[nH]c1=O | inactive |
| COc1ccc2c(n1)Sc1nc3ccccc3nc1N2 | inactive |
| COc1ccc(Nc2nc3cc(C(F)(F)F)ccc3nc2-c2ccccc2)cc1OC | inactive |
| O=C(Nc1nnc(-c2ccc(Cl)cc2)o1)C(SC(=S)N1CCOCC1)c1ccccc1 (centres undefined) | inactive |
| COc1ccc(C2SCC(=O)N2NC(=O)C(C)Oc2ccccc2C)cc1 (centres undefined) | inactive |
| Cc1sc(/N=C/c2c[nH]c3ccccc23)c(C#N)c1C | inactive |
| CN1CCN(c2cc3nc4cc(O)cc(O)c4c(O)c3cc2N)CC1 | inactive |
| O=c1c(C(c2ccc(/C=C/c3ccccc3)cc2)c2c(O)oc3cc(O)ccc3c2=O)c(O)oc2cc(O)ccc12 | inactive |
| CC(NNC(=O)c1ccncc1)c1ccc(F)cc1 (centres undefined) | inactive |
| CC(C)(CCCCC(C)(C)C1NC(=O)N1)C1NC(=O)N1 | inactive |

====

Tested on: M19-MEL
Assay Overview: NCI tumour cell line growth inhibition, 48 h
Calls of active or inactive are those of the source. Cut-off read from the data, not from the text of the source: active = GI50 up to about 1.1 µM and inactive = higher.
Overview of reported GI50 across a group of compounds:
Attribute Measured: GI50

| Compound | Value Measured |
| --- | --- |
| CCN(CC)CCNC(=O)c1nn(C)c(=S)[nH]c1=S | > 100 µM (inactive) |
| CCOC(=O)C(Cc1ccccc1)NC(=O)c1nc[nH]c1/N=N/N(C)C (centres undefined) | > 100 µM (inactive) |
| Cc1ccccc1C(CCCO)C(=O)O (centres undefined) | > 100 µM (inactive) |
| O=P(Oc1ccc2ccccc2c1)(N1CC1)N1CC1 | 13.5 µM (inactive) |

====

Test system: RPMI-8226
Assay Overview: NCI tumour cell line growth inhibition, 48 h
The source made the active and inactive calls. No stated cut-off is given here; in the data, active = GI50 up to about 1.1 µM and inactive = higher.
Attribute Measured: GI50

| Compound | Tested Target | Attribute Measured | Value Measured |
| --- | --- | --- | --- |
| CCCc1c(-c2ccccc2)[nH]c2ccccc2c1=O | RPMI-8226 | GI50 | 54.6 µM (inactive) |
| COc1ccc(/C=C2/C(=O)N(C(=O)c3ccccc3O)N=C2C)cc1 | RPMI-8226 | GI50 | 0.895 µM (active) |
| CC1CC2OC(=O)C(C)C2CC2(C)C(OC3OC(CO)C(O)C(O)C3O)OCCC12 (stereo unspecified) | RPMI-8226 | GI50 | > 100 µM (inactive) |
| Oc1ccccc1CNCc1ccccc1O | RPMI-8226 | GI50 | 32.7 µM (inactive) |
| CC1CCCC2=C1C(c1ccc(Cl)cc1)n1c(s/c(=C\c3ccc(Cl)cc3)c1=O)=N2 (stereo unspecified) | RPMI-8226 | GI50 | > 100 µM (inactive) |
| O=C(N/N=C(\c1ccccc1)c1ccccn1)NC1CCCCC1 | RPMI-8226 | GI50 | 48.1 µM (inactive) |

====

System: CAKI-1
Assay Overview: NCI tumour cell line growth inhibition, 48 h
Calls of active or inactive are those of the source. No stated cut-off is given here; in the data, active = GI50 up to about 1.1 µM and inactive = higher.
Overview of reported GI50 across a group of molecules:

| Molecule | GI50 |
| --- | --- |
| Cn1cc(-c2n[nH]c(-c3ccc(Cl)cc3)nc2=O)c2ccccc21 | 1.36 µM (inactive) |
| O=[N+]([O-])/C(C(Cl)=C(Cl)Cl)=C(\Nc1cccc2ccccc12)n1nnc2ccccc21 | > 100 µM (inactive) |
| COC(=O)C12CCC(C(=O)OC)(Cc3c(c4ccccc4n3S(=O)(=O)c3ccccc3)C1)C2=O (configuration not stated) | > 62.4 µM (inactive) |
| COc1ccc(O)c2c1C(=O)CCCC2=O | > 100 µM (inactive) |
| O=C1C(Cl)=C(Cl)C(=O)N1c1ccc(F)cc1 [FLUOROIMIDE] | 13.7 µM (inactive) |
| NCCN1C(=O)c2cc(Cl)c(Cl)cc2C1(O)c1ccc(Cl)cc1 (configuration not stated) | 2.54 µM (inactive) |
| CCN(CC)C(=O)CCCCCCCCC1CO1 (configuration not stated) | > 100 µM (inactive) |
| N#C/C(=C\c1cc(O)ccc1O)C(N)=O | 46.2 µM (inactive) |
| Cn1c2ccccc2c(=NNc2ccc(S(=O)(=O)N=C(N)N)cc2)c2ccccc21 | 10.8 µM (inactive) |
| CC(C)(C)n1c(=O)n2n(c1=O)Cc1cccc3cccc(c13)C2 | 15.1 µM (inactive) |
| N#CCCN(c1ccc(/C=N/c2cccc([N+](=O)[O-])c2)cc1)S(=O)(=O)c1ccccc1 | > 100 µM (inactive) |
| C#CC(O)(c1nc2ccccc2s1)c1nc2ccccc2s1 | 23.5 µM (inactive) |
| N#Cc1nc(-c2cccs2)oc1N | 3.09 µM (inactive) |
| CCCCn1c(C)c(C(=O)OCC)c2cc(OCc3ccc(C(=O)Nn4c(C)ccc4C)cc3)c(Br)cc21 | > 100 µM (inactive) |
| Cc1ccc(S(=O)(=O)N/N=C/c2oc(-c3cccc([N+](=O)[O-])c3)c(-c3cccc([N+](=O)[O-])c3)c2[N+](=O)[O-])cc1 | > 100 µM (inactive) |
| Clc1nc(NC23CC4CC(CC(C4)C2)C3)nc(NC23CC4CC(CC(C4)C2)C3)n1 | > 100 µM (inactive) |
| CCOP(=O)(Nc1ccc(-c2ccc(N)cc2)cc1)OCC | > 100 µM (inactive) |
| CCOC(=O)c1[nH]c2cccc3c2c1CC[C@H](NC(=O)C(F)(F)F)C3=O | 13.9 µM (inactive) |
| CCCCc1ccc(Nc2ncc3ncn(COCCO)c3n2)cc1 | 49.1 µM (inactive) |
| NC(CC1=CS(=O)(=O)c2ccc(Cl)cc21)C(=O)O (configuration not stated) | > 100 µM (inactive) |
| O=C1c2ccccc2C(=O)C1C(c1ccc(F)cc1)C1C(=O)c2ccccc2C1=O | > 100 µM (inactive) |
| Nc1c(S(=O)(=O)O)cc(S(=O)(=O)O)c2ccc(/N=N/c3ccccc3)c(O)c12 | > 100 µM (inactive) |
